All figures here come from PubChem BioAssay (NCI).

system: NCI-H522 lung; assay: NCI tumour cell line growth inhibition, 48 h; in the data active = GI50 below about 0.43 µM; inactive = the rest
Labels: active, inactive

>  <molecule>
O=c1c2ccccc2n(C[C@H]2CO2)c2ccccc12

>  <tested.system>
NCI-H522 lung

>  <cat>
inactive

$$$$
>  <molecule>
O=c1nc2n(-c3ccc(Cl)cc3)c3ccc([N+](=O)[O-])cc3cc-2c(=O)[nH]1

>  <tested.system>
NCI-H522 lung

>  <cat>
inactive

$$$$
>  <molecule>
c1ccc2[nH]c(-c3ccc(NN=Nc4ccncc4)cc3)nc2c1

>  <tested.system>
NCI-H522 lung

>  <cat>
inactive

$$$$
>  <molecule>
COc1cc2c3c(n(CCCN)c(=O)c2cc1OC)-c1cc2c(cc1/C3=C\CCN)OCO2

>  <tested.system>
NCI-H522 lung

>  <cat>
active

$$$$
>  <molecule>
O=C1/C(=C/c2ccccc2)CN(C(=O)c2cccnc2)C/C1=C\c1ccccc1

>  <tested.system>
NCI-H522 lung

>  <cat>
inactive

$$$$
>  <molecule>
O=C1NC(O)C(c2c[nH]c3ccccc23)=C1c1c[nH]c2ccccc12 (stereo not drawn)

>  <tested.system>
NCI-H522 lung

>  <cat>
inactive

$$$$
>  <molecule>
COc1ccccc1CCN=C1NC(=O)/C(=C/c2ccc3ncccc3c2)S1

>  <tested.system>
NCI-H522 lung

>  <cat>
inactive

$$$$
>  <molecule>
COc1ccc(-n2nnnc2-c2c[nH]c3c(F)cc(F)cc23)cc1

>  <tested.system>
NCI-H522 lung

>  <cat>
inactive

$$$$
>  <molecule>
O=C1C(=O)c2ccccc2C(O)=C1CC=C(Br)Br

>  <tested.system>
NCI-H522 lung

>  <cat>
inactive

$$$$
>  <molecule>
NC(N)=N/N=C\c1cccc(OCc2ccccc2)c1

>  <tested.system>
NCI-H522 lung

>  <cat>
inactive

$$$$
>  <molecule>
Cc1ccc(-n2c3c(c4c(CN(C)C)c(O)ccc42)CCc2ccccc2C3=O)cc1

>  <tested.system>
NCI-H522 lung

>  <cat>
inactive

$$$$
>  <molecule>
COc1ccc(/C=C\c2cc(OC)c(OC)c(OC)c2)cc1OC(=O)c1cccc(Cn2cc(CCOC(=O)[C@H](N)Cc3cn(C)c4ccccc34)nn2)c1

>  <tested.system>
NCI-H522 lung

>  <cat>
active

$$$$
>  <molecule>
CCOC(=O)c1[nH]c(Br)c(-c2ccc(Br)cc2)c1Br

>  <tested.system>
NCI-H522 lung

>  <cat>
active

$$$$
>  <molecule>
C/C(=N/Nc1nc2ccccc2n1C)c1ccccn1

>  <tested.system>
NCI-H522 lung

>  <cat>
active

$$$$
>  <molecule>
COC1CC2CCC(C)C(O)(O2)C(=O)C(=O)N2CCCCC2C(=O)OC(C(C)CC2CCC(O)C(OC)C2)CC(=O)C(C)C=C(C)C(O)C(OC)C(=O)C(C)CC(C)/C=C/C=C/C=C1C (stereo not drawn)

>  <tested.system>
NCI-H522 lung

>  <cat>
inactive

$$$$
>  <molecule>
C#CCC(Cc1cnc2nc(N)nc(N)c2n1)c1ccc(C(=O)N[C@@H](CCC(=O)O)C(=O)O)cc1 (stereo partly drawn)

>  <tested.system>
NCI-H522 lung

>  <cat>
active

$$$$
>  <molecule>
N[C@@H]1CCCC[C@H]1N.O=C([O-])C(=O)[O-].[Pt+4]

>  <tested.system>
NCI-H522 lung

>  <cat>
inactive

$$$$
>  <molecule>
CCCc1cc2c(=O)c(C(=O)OC)c[nH]c2cc1N(CC)CC

>  <tested.system>
NCI-H522 lung

>  <cat>
inactive

$$$$
